Target: UniProt P10276
Sequence (P10276 1-462): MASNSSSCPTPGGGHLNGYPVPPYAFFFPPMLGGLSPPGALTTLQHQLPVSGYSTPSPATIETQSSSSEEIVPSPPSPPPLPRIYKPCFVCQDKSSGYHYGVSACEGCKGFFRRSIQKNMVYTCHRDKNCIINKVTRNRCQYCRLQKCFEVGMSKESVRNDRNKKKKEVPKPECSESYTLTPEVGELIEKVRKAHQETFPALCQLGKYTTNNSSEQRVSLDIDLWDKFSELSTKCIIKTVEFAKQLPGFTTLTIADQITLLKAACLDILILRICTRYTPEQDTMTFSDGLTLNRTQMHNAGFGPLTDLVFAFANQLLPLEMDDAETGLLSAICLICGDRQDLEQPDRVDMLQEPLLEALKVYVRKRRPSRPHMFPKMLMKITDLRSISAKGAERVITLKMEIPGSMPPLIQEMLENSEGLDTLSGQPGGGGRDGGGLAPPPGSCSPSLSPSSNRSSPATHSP
Test: Co-transfection (cis-trans) assay in CV-1 cells, RARα
Format: cell-based
Design: expressed in transfected cells; host or cells: CV-1 (monkey kidney)
Details: CV-1, maximal response relative to all-trans-retinoic acid at 10^−5 M, read-out: Efficacy
ENDPOINT: Emax at 10 µM (%)

TEST_SMILES: CC1=C(/C=C/C2(C/C=C/C(C)=C/C(=O)O)CC2)C(C)(C)CCC1
UNITS_TEXT: %
Emax at 10 µM: 9

A. CC(/C=C/C1(c2cc3c(cc2C)C(C)(C)CCC3(C)C)CC1)=C\C(=O)O
B. CC(/C=C/C=C(\c1ccc2c(c1)C(C)(C)CCC2(C)C)C(C)C)=C\C(=O)O
Exercise: Which entry has a larger number for Emax at 10 µM, A or B ? // return label of chosen record
Solution: B
(B: 11%, A: 7%)

* * *

System: HL60 cells
Test: HL60 differentiation (NBT reduction)
Assay type: cell-based
Details: Homo sapiens, HL-60, read-out: EC50 for mediated differentiation
pEC50: −log10 of the molar value.
ENDPOINT: pEC50

Here C=C(c1ccc(C(=O)O)cc1)c1cc2c(cc1C)C(C)(C)CCC2(C)C was tested on HL60 cells, and its pEC50 came to < 3.00

* * *

Molecular target: RXRβ (Mus musculus)
Construct: expressed in transfected cells; host or cells: CV-1 (monkey kidney)
Sequence (P28704 1-520): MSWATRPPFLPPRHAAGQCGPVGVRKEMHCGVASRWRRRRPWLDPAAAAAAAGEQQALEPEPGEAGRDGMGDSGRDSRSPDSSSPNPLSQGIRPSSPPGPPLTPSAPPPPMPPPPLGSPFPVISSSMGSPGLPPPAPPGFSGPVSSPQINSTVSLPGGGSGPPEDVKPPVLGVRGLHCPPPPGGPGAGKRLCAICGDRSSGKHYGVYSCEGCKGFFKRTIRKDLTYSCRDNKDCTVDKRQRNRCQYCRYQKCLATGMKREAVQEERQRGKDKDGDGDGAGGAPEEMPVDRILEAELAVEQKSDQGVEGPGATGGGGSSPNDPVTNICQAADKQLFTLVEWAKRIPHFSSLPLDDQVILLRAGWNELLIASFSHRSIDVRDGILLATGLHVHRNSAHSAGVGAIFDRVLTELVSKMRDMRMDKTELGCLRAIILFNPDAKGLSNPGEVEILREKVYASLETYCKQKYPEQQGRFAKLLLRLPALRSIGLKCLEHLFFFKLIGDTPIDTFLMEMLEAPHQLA
Assay: Co-transfection (cis-trans) assay in CV-1 cells, RXRβ
Assay type: cell-based
Conditions: CV-1; RXRβ; maximal response relative to all-trans-retinoic acid at 10^−5 M; read-out: Efficacy
ENDPOINT: Emax at 10 µM (%)

MOLECULE: C=C(c1ccc(C(=O)Nc2ccc(O)cc2)cc1)c1cc2c(cc1C)C(C)(C)CCC2(C)C
UNITS_TEXT: %
Emax at 10 µM: 121
//
MOLECULE: CC(/C=C/C1(c2cc3c(cc2C)C(C)(C)CCC3(C)C)CC1)=C\C(=O)O
UNITS_TEXT: %
Emax at 10 µM: 133
//
MOLECULE: CC1=C(/C=C/C(=C\C=C\C(C)=C\C(=O)O)C(C)C)C(C)(C)CCC1
UNITS_TEXT: %
Emax at 10 µM: 142
//
MOLECULE: C/C(=C/C=C/C(C)=C/C(=O)O)c1cc2c(cc1C)C(C)(C)CCC2(C)C
UNITS_TEXT: %
Emax at 10 µM: 154
//
MOLECULE: CC1=C(/C=C/C(=C\C=C\C(C)=C\C(=O)O)C(C)(C)C)C(C)(C)CCC1
UNITS_TEXT: %
Emax at 10 µM: 99

a. CCCC(=C/C=C/C(C)=C/C(=O)O)/C=C/C1=C(C)CCCC1(C)C
b. Cc1cc2c(cc1C(=O)c1ccc(C(=O)Nc3ccc(O)cc3)cc1)C(C)(C)CCC2(C)C
c. CC1=C(C=CC2CCCCC2/C=C/C(C)=C/C(=O)O)C(C)(C)CCC1 (centres unmarked)
Exercise: # rank by Emax at 10 µM, ascending (min first) Thanks in advance for listing the labels in the requested order.
Solution: c, a, b
(c: 54%, a: 91%, b: 155%)

P. CC(/C=C/C=C(\c1ccc2c(c1)C(C)(C)CCC2(C)C)C(C)C)=C\C(=O)O
Q. CC1=C(/C=C/C2(C/C=C/C(C)=C/C(=O)O)CC2)C(C)(C)CCC1
Exercise: Between P and Q , which one shows the smaller Emax at 10 µM number? // return label of chosen record
Solution: Q
(Q: 73%, P: 105%)

* * *

Target: RARγ (Homo sapiens, UniProt P13631)
Sequence (P13631 whole entry): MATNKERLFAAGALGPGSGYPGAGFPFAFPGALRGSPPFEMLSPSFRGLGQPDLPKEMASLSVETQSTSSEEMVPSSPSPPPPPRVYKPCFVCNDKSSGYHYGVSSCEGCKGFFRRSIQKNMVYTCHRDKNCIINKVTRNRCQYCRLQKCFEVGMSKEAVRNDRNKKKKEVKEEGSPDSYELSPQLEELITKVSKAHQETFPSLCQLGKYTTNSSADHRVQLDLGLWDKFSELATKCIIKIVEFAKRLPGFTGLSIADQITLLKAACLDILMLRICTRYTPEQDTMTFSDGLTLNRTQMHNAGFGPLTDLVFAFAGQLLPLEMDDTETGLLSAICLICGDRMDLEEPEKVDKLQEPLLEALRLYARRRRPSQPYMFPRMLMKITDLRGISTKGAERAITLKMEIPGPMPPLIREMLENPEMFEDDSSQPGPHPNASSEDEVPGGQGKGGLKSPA
Assay: Co-transfection (cis-trans) assay in CV-1 cells, RARγ
Conditions: CV-1 cells, luciferase reporter, 36 h, read-out: Potency
pEC50: −log10 of the molar value.
ENDPOINT: pEC50

// below: answered compounds
TEST_SMILES: CC1=C(/C=C/C(=C\C=C\C(C)=C\C(=O)O)C(C)C)C(C)(C)CCC1
pEC50: 6.82

TEST_SMILES: CC1=C(/C=C/C(=C\C=C\C(C)=C\C(=O)O)C(C)(C)C)C(C)(C)CCC1
pEC50: 6.77

TEST_SMILES: C=C(c1ccc(C(=O)O)cn1)c1cc2c(cc1C)C(C)(C)CCC2(C)C
pEC50: 5.82

TEST_SMILES: C/C(=C/C=C/C(C)=C/C(=O)O)c1cc2c(cc1C)C(C)(C)CCC2(C)C
pEC50: 6.51

a. CC(/C=C/C=C(\c1ccc2c(c1)C(C)(C)CCC2(C)C)C(C)C)=C\C(=O)O
b. CC(/C=C/C1(c2cc3c(cc2C)C(C)(C)CCC3(C)C)CC1)=C\C(=O)O
Exercise: Between a and b , which one shows the smaller pEC50 number? // return label of chosen record
Solution: a
(a: 6.55, b: 6.84)

* * *

Molecular target: RARβ (Homo sapiens, UniProt P10826)
Sequence (P10826 whole entry): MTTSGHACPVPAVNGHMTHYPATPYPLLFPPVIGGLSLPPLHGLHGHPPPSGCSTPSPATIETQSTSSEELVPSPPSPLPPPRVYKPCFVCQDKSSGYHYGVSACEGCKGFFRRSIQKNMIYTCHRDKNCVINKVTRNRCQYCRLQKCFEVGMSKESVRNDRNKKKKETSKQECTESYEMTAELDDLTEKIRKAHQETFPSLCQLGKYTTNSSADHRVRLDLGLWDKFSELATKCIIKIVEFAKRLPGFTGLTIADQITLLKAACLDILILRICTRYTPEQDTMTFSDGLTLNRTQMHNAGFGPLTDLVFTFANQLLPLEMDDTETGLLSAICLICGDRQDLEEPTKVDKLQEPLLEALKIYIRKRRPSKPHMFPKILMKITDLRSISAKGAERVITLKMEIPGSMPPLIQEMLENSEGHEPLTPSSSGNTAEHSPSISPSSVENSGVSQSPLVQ
Test: Co-transfection (cis-trans) assay in CV-1 cells, RARβ
Details: CV-1 cells, luciferase reporter, 36 h, read-out: Potency
pEC50: −log10 of the molar value.
ENDPOINT: pEC50

A. CC1=C(/C=C/C(=C\C=C\C(C)=C\C(=O)O)C(C)(C)C)C(C)(C)CCC1
B. CC(/C=C/C=C(\c1ccc2c(c1)C(C)(C)CCC2(C)C)C(C)C)=C\C(=O)O
Exercise: Which entry has a larger number for pEC50, A or B ? // return label of chosen record
Solution: B
(B: 7.12, A: 6.85)

* * *

Tested on: myeloma cell line (RPMI 8226)
Test: Thymidine incorporation in myeloma cell line RPMI 8226
Assay type: cell-based
Conditions: Homo sapiens; RPMI 8226, FIG. 11; read-out: IC50, inhibition of thymidine incorporation
ENDPOINT: IC50

Here C/C(=C\c1ccc(C(=O)O)cc1)c1ccc2c(c1)C(C)(C)CCC2(C)C [TTNPB, reference compound] was tested on myeloma cell line (RPMI 8226), and its IC50 came to ~50 pM

* * *

Target: RXRα (Homo sapiens)
Construct: The first plasmid contains a retinoid receptor cDNA and directs constitutive expression of the encoded receptor; expressed in transfected cells; host or cells: CV-1 (monkey kidney)
Sequence (P19793 whole entry): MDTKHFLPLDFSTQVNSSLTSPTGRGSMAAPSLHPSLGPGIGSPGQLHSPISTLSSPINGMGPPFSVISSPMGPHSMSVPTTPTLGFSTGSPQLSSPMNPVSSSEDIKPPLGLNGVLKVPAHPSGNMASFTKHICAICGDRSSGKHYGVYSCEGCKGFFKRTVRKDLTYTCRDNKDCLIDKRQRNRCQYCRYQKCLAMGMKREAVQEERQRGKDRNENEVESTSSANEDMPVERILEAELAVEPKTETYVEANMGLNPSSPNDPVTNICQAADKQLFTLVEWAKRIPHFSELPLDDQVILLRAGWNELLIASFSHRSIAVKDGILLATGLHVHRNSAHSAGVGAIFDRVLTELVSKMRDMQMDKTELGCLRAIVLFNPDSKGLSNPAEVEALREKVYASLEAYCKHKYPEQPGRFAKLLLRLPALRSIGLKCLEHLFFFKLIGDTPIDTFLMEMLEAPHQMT
Assay: Co-transfection (cis-trans) assay in CV-1 cells, RXRα
Format: cell-based
Conditions: RXRα; CV-1 cells, luciferase reporter, 36 h; read-out: Potency
ENDPOINT: EC50 (nM)

// below: answered compounds
COMPOUND: CC1=C(/C=C/C2(C/C=C/C(C)=C/C(=O)O)CC2)C(C)(C)CCC1
EC50, nM: 85
--
COMPOUND: C=C(c1ccc(C(=O)Nc2ccc(O)cc2)cc1)c1cc2c(cc1C)C(C)(C)CCC2(C)C
EC50, nM: 140
--
COMPOUND: Cc1cc2c(cc1C(=O)c1ccc(C(=O)Nc3ccc(O)cc3)cc1)C(C)(C)CCC2(C)C
EC50, nM: 1100
--
COMPOUND: CC1=C(/C=C/C(=C\C=C\C(C)=C\C(=O)O)C(C)C)C(C)(C)CCC1
EC50, nM: 21
--
COMPOUND: C/C(=C/C=C/C(C)=C/C(=O)O)c1cc2c(cc1C)C(C)(C)CCC2(C)C
EC50, nM: 11
--
COMPOUND: CC(/C=C/C1(c2cc3c(cc2C)C(C)(C)CCC3(C)C)CC1)=C\C(=O)O
EC50, nM: 5

1. CC(/C=C/C=C(\c1ccc2c(c1)C(C)(C)CCC2(C)C)C(C)C)=C\C(=O)O
2. CCCC(=C/C=C/C(C)=C/C(=O)O)/C=C/C1=C(C)CCCC1(C)C
3. CC1=C(/C=C/C(=C\C=C\C(C)=C\C(=O)O)C(C)(C)C)C(C)(C)CCC1
Exercise: # rank by EC50, ascending (min first) Thanks in advance for listing the labels in the requested order.
Solution: 2, 3, 1
